System: Klebsiella aerogenes DSM 30053
Assay: fold change of Histamine concentration vs plate DMSO controls (fold change (ratio)); higher = more amine produced, active = hit call of the paper (significant change in both replicates, either direction)
Details: incubation time: 27 h, anaerobic, 37 °C
Counter-ions that a name gives are not always drawn.
metric_name: fold change of Histamine concentration

[[record]]
compound = "Cn1cc([S+](C)[O-])c(=O)c2ccc(F)cc21 (stereo not drawn) [Flosequinan] (20 µM)"
metric_name = "fold change of Histamine concentration"
test_value = 1.03

[[record]]
compound = "OCCN1CCN(CC/C=C2/c3ccccc3Sc3ccc(C(F)(F)F)cc32)CC1 [Flupentixol dihydrochloride cis-(Z)] (20 µM)"
metric_name = "fold change of Histamine concentration"
test_value = 1

[[record]]
compound = "CC(C)(C)CC(C)(C)c1ccc(O)c(Cc2ccc(Cl)cc2Cl)c1 [Clofoctol] (20 µM)"
metric_name = "fold change of Histamine concentration"
test_value = 1.01

[[record]]
compound = "CC1(C)[C@H](C(=O)O)N2C(=O)C[C@H]2S1(=O)=O [Sulbactam] (20 µM)"
metric_name = "fold change of Histamine concentration"
test_value = 1.05

[[record]]
compound = "O=C1c2c(O)cccc2Cc2cccc(O)c21 [Anthralin] (20 µM)"
metric_name = "fold change of Histamine concentration"
test_value = 1.05

[[record]]
compound = "COC(=O)C1=C(C)NC(C)=C(C(=O)OCCN(C)Cc2ccccc2)C1c1cccc([N+](=O)[O-])c1 (stereo not drawn) [Nicardipine hydrochloride] (20 µM)"
metric_name = "fold change of Histamine concentration"
test_value = 0.982

[[record]]
compound = "Cc1cc(=O)oc2cc(O)ccc12 [Hymecromone] (20 µM)"
metric_name = "fold change of Histamine concentration"
test_value = 1.04

[[record]]
compound = "C[N+]1(C)CCC(OC(=O)C(O)(c2ccccc2)C2CCCC2)C1 (stereo not drawn) [Glycopyrrolate bromide] (20 µM)"
metric_name = "fold change of Histamine concentration"
test_value = 1


###

Recorded growth for the following compounds
Test system: Ruminococcus gnavus DSM 108212
Experiment: growth (OD595) fold change vs plate DMSO controls (fold change (ratio)); higher = more growth
Settings: incubation time: 27 h, anaerobic, 37 °C
Structures can show the parent of a compound that is named as a salt.
metric_name: growth

[[record]]
compound = "c1ccc2[nH]c(-c3cscn3)nc2c1 [Tiabendazole] (20 µM)"
metric_name = "growth"
test_value = 0.962

[[record]]
compound = "Cc1ccc(C)c(OCCCC(C)(C)C(=O)O)c1 [Gemfibrozil] (20 µM)"
metric_name = "growth"
test_value = 0.931

[[record]]
compound = "CCCCC(CC)CN1CN(CC(CC)CCCC)CC(C)(N)C1 (stereo not drawn) [Hexetidine] (20 µM)"
metric_name = "growth"
test_value = 1.45

[[record]]
compound = "CCOC(=O)C(C)(C)Oc1ccc(Cl)cc1 [Clofibrate] (20 µM)"
metric_name = "growth"
test_value = 0.977

[[record]]
compound = "CCCCOC(=O)c1ccccc1Nc1cccc(C(F)(F)F)c1 [Ufenamate] (20 µM)"
metric_name = "growth"
test_value = 0.991

[[record]]
compound = "Cc1c(NC(=O)c2cccnc2)c(=O)n(-c2ccccc2)n1C [Nifenazone] (20 µM)"
metric_name = "growth"
test_value = 0.857

[[record]]
compound = "COc1cc(/C=C/C(=O)N2CCN(CC(=O)N3CCCC3)CC2)cc(OC)c1OC [Cinepazide maleate] (20 µM)"
metric_name = "growth"
test_value = 1.02

[[record]]
compound = "COCCCOc1cc(C[C@@H](C[C@H](N)[C@@H](O)C[C@H](C(=O)NCC(C)(C)C(N)=O)C(C)C)C(C)C)ccc1OC [Aliskiren hemifumarate] (20 µM)"
metric_name = "growth"
test_value = 0.808

[[record]]
compound = "[S] (20 µM)"
metric_name = "growth"
test_value = 0.976

[[record]]
compound = "CC(C)(C#N)c1cc(Cn2cncn2)cc(C(C)(C)C#N)c1 [Anastrozole] (20 µM)"
metric_name = "growth"
test_value = 1.02

[[record]]
compound = "Nc1ncnc2c1ncn2C1OC(COP(=O)(O)O)C(O)C1O (stereo not drawn) [Adenosine 5'-monophosphate monohydrate] (20 µM)"
metric_name = "growth"
test_value = 0.96

[[record]]
compound = "COc1ccc2[nH]cc(CCNC(C)=O)c2c1 [Melatonin] (20 µM)"
metric_name = "growth"
test_value = 0.789

[[record]]
compound = "OC[C@H]1O[C@@](CO)(OC[C@@]2(OC[C@@]3(O[C@H]4O[C@H](CO)[C@@H](O)[C@H](O)[C@H]4O)O[C@H](CO)[C@@H](O)[C@@H]3O)O[C@H](CO)[C@@H](O)[C@@H]2O)[C@@H](O)[C@@H]1O [Nystose] (50 µM)"
metric_name = "growth"
test_value = 1.05

[[record]]
compound = "CN[C@@H]1[C@H](O[C@H]2[C@H](O[C@H]3[C@H](O)[C@@H](O)[C@H](NC(=N)N)[C@@H](O)[C@@H]3NC(=N)N)O[C@@H](C)[C@]2(O)CO)O[C@@H](CO)[C@H](O)[C@H]1O [Dihydrostreptomycin sulfate] (20 µM)"
metric_name = "growth"
test_value = 0.933

[[record]]
compound = "CCOc1ccc2ccccc2c1C(=O)N[C@@H]1C(=O)N2[C@@H]1SC(C)(C)[C@@H]2C(=O)O [Nafcillin sodium salt monohydrate] (20 µM)"
metric_name = "growth"
test_value = 0

[[record]]
compound = "Cc1c(O)c(=O)ccn1C [Deferiprone] (20 µM)"
metric_name = "growth"
test_value = 1.06

[[record]]
compound = "N=C(N)NCCN1CCCCCCC1 [Guanethidine sulfate] (20 µM)"
metric_name = "growth"
test_value = 0.933

[[record]]
compound = "CC(C)(C)NCC(O)COc1cccc2c1CC(O)C(O)C2 (stereo not drawn) [Nadolol] (20 µM)"
metric_name = "growth"
test_value = 0.969

[[record]]
compound = "CC(NCCC(c1ccccc1)c1ccccc1)c1ccccc1 (stereo not drawn) [Fendiline hydrochloride] (20 µM)"
metric_name = "growth"
test_value = 1.09

[[record]]
compound = "CCCCOc1cc(C(=O)OCCN(CC)CC)ccc1N [Benoxinate hydrochloride] (20 µM)"
metric_name = "growth"
test_value = 1.01

[[record]]
compound = "O=C(O)Cc1ccc(-c2ccccc2)cc1 [Felbinac] (20 µM)"
metric_name = "growth"
test_value = 1.01

[[record]]
compound = "Cc1nc(C)c(Cl)c(O)c1Cl [Clopidol] (20 µM)"
metric_name = "growth"
test_value = 1.14

[[record]]
compound = "CN1CCC[C@@H]1Cc1c[nH]c2ccc(CCS(=O)(=O)c3ccccc3)cc12 [Eletriptan] (20 µM)"
metric_name = "growth"
test_value = 0.979

[[record]]
compound = "CCCCCCNC(=O)n1cc(F)c(=O)[nH]c1=O [Carmofur] (20 µM)"
metric_name = "growth"
test_value = 0.862

[[record]]
compound = "CNC(C)CCC=C(C)C (stereo not drawn) [Isometheptene mucate] (20 µM)"
metric_name = "growth"
test_value = 1.24

[[record]]
compound = "O=C(O)c1ccccc1C(=O)Nc1ccc(S(=O)(=O)Nc2nccs2)cc1 [Phthalylsulfathiazole] (20 µM)"
metric_name = "growth"
test_value = 1.09

[[record]]
compound = "CNCc1cc(-c2ccccc2F)n(S(=O)(=O)c2cccnc2)c1 [Vonoprazan] (20 µM)"
metric_name = "growth"
test_value = 1.04

[[record]]
compound = "CC(C(=O)O)c1ccc(C(=O)c2cccs2)cc1 (stereo not drawn) [Suprofen] (20 µM)"
metric_name = "growth"
test_value = 0.974

[[record]]
compound = "Nc1nc(N)c2nc(-c3ccccc3)c(N)nc2n1 [Triamterene] (20 µM)"
metric_name = "growth"
test_value = 1.25

[[record]]
compound = "CN(CCCN1c2ccccc2CCc2ccccc21)CC(=O)c1ccc(Cl)cc1 [Lofepramine] (20 µM)"
metric_name = "growth"
test_value = 1.2

[[record]]
compound = "CNCCC(Oc1ccccc1OC)c1ccccc1 (stereo not drawn) [Nisoxetine hydrochloride] (20 µM)"
metric_name = "growth"
test_value = 0.975

[[record]]
compound = "CC(=O)N(CC(C)C(=O)O)c1c(I)cc(I)c(N)c1I (stereo not drawn) [Iocetamic acid] (20 µM)"
metric_name = "growth"
test_value = 0.975

[[record]]
compound = "COC(c1ccccc1)(c1ccccc1)[C@H](Oc1nc(C)cc(C)n1)C(=O)O [Ambrisentan] (20 µM)"
metric_name = "growth"
test_value = 1.04


###

System: Klebsiella aerogenes DSM 30053
Assay: fold change of Histamine concentration vs plate DMSO controls (fold change (ratio)); higher = more amine produced, active = hit call of the paper (significant change in both replicates, either direction)
Settings: incubation time: 27 h, anaerobic, 37 °C
Counter-ions that a name gives are not always drawn.
metric_name: fold change of Histamine concentration

[[record]]
compound = "O=C1c2ccccc2C(=O)C1c1ccccc1 [Phenindione] (20 µM)"
test_value = 1.08

[[record]]
compound = "COc1ccc2cc([C@@H](C)C(=O)O)ccc2c1 [(R) Naproxen sodium salt] (20 µM)"
test_value = 1.03

[[record]]
compound = "CO/N=C(\\C(=O)N[C@@H]1C(=O)N2C(C(=O)[O-])=C(C[n+]3cccc4c3CCC4)CS[C@H]12)c1csc(N)n1 [Cefpirome sulfate] (20 µM)"
test_value = 0.122

[[record]]
compound = "O=C(O)c1cn(C2CC2)c2cc(N3CCNCC3)c(F)cc2c1=O [Ciprofloxacin hydrochloride monohydrate] (20 µM)"
test_value = 0.0661

[[record]]
compound = "Nc1cc(-c2ccncc2)c[nH]c1=O [Amrinone] (20 µM)"
test_value = 0.956

[[record]]
compound = "O=C(NCCNCC(O)COc1ccc(O)cc1)N1CCOCC1 (stereo not drawn) [Xamoterol hemifumarate] (20 µM)"
test_value = 1.06

[[record]]
compound = "CN(C)CCOc1ccc(/C(=C(/CCCl)c2ccccc2)c2ccccc2)cc1 [Toremifene] (20 µM)"
test_value = 0.943

[[record]]
compound = "Cn1c(=O)c2c(ncn2CC(=O)O)n(C)c1=O [Acefylline] (20 µM)"
test_value = 0.964

